Where do these numbers come from? They come from PubChem BioAssay AID248.

Tested on: L1210 leukemia ip in BDF1 mice, survival T/C
Assay: NCI In Vivo Anticancer Drug Screen. Data for tumor model L1210 Leukemia (intraperitoneal) in B6D2F1 (BDF1) mice
Conditions: endpoint: mean survival time; dose: 50.0 mg/kg/injection; schedule: Q01DX001 (ip); vehicle: saline; higher = longer survival
Toxic doses and inconclusive results are not listed.
measurement-kind: T/C

compound	experimental-target	measurement-kind	value
C=CC(=O)O	L1210 leukemia ip in BDF1 mice, survival T/C	T/C	95 % of control
CCCCCC(C)(O)CCC (stereo not drawn)	L1210 leukemia ip in BDF1 mice, survival T/C	T/C	93 % of control
O=C1CCCC1C(=O)Nc1cccc2ccccc12 (stereo not drawn)	L1210 leukemia ip in BDF1 mice, survival T/C	T/C	97 % of control
CC1CN1P1(N2CC2C)=NP(N2CC2C)(N2CC2C)=NP(N2CC2C)(N2CC2C)=N1 (stereo not drawn)	L1210 leukemia ip in BDF1 mice, survival T/C	T/C	120 % of control

Short answer on L1210 leukemia ip in BDF1 mice, survival T/C for `Cn1cc2c(=O)n(OS(=O)(=O)c3ccccc3)c(=O)[nH]c2n1` , T/C: 106 % of control

Short answer on L1210 leukemia ip in BDF1 mice, survival T/C for CCCCCCCCCC(CCCCCCCC(=O)O)NC(C)=O (stereo not drawn) , T/C: 97 % of control

Short answer on L1210 leukemia ip in BDF1 mice, survival T/C for `OCC(F)(F)C(F)F` , T/C: 91 % of control

----------
Test system: L1210 leukemia ip in BDF1 mice, survival T/C
Assay: NCI In Vivo Anticancer Drug Screen. Data for tumor model L1210 Leukemia (intraperitoneal) in B6D2F1 (BDF1) mice
Details: endpoint: mean survival time; dose: 400.0 mg/kg/injection; schedule: Q04DX003 (ip); vehicle: saline; higher = longer survival
Inconclusive results and toxic doses are left out.
Each entry below carries its reported T/C.

// worked examples, T/C included
compound	experimental-target	T/C
CC1C(=O)OC2CC[N+]3(CC(=O)c4ccc(Br)cc4)CC=C(COC(=O)C(C)(O)C1(C)O)C23 (stereo unspecified)	L1210 leukemia ip in BDF1 mice, survival T/C	87 % of control
CCCOc1ccc(=S)[nH]n1	L1210 leukemia ip in BDF1 mice, survival T/C	95 % of control
CC(=O)/C(C1=NCCC1)=C(/C)O	L1210 leukemia ip in BDF1 mice, survival T/C	98 % of control
Nc1ccc(C(=O)Nc2ccc(Nc3ccncc3)cc2)c([N+](=O)[O-])c1	L1210 leukemia ip in BDF1 mice, survival T/C	100 % of control
Nc1ccc(Oc2ccc(S(=O)(=O)O)cc2)cc1	L1210 leukemia ip in BDF1 mice, survival T/C	94 % of control

Query `O=C1Nc2ccccc2Oc2ccccc21` yields T/C of 92 % of control

----------
Test system: L1210 leukemia ip in BDF1 mice, survival T/C
Assay: NCI In Vivo Anticancer Drug Screen. Data for tumor model L1210 Leukemia (intraperitoneal) in B6D2F1 (BDF1) mice
Conditions: endpoint: mean survival time; dose: 400.0 mg/kg/injection; schedule: Q01DX001 (ip); vehicle: saline with Tween-80; higher = longer survival
Toxic doses and inconclusive results are not listed.
measurement-kind: T/C

// worked examples, T/C included
compound	T/C
CCCCN1C(=O)c2cccnc2C1=O	93 % of control
CC(=O)c1c(C)n(C)c2ccccc12	103 % of control
CSc1ccc(NC(=O)OCCOc2ccccc2)cc1	110 % of control
CCCCCCCC#N	105 % of control
CC(=O)NC1CON=C1OS(=O)(=O)c1ccc(C)cc1 (centres undefined)	100 % of control

Query CCC(/C=C\C(C)C1CCC2C3CC=C4CC(OS(=O)(=O)c5ccc(C)cc5)CCC4(C)C3CCC12C)C(C)C (centres undefined) yields T/C of 86 % of control

Query COC(=O)C1CN1C(c1ccccc1)(c1ccccc1)c1ccccc1 (centres undefined) yields T/C of 90 % of control

----------
Tested on: L1210 leukemia ip in BDF1 mice, survival T/C
Assay: NCI In Vivo Anticancer Drug Screen. Data for tumor model L1210 Leukemia (intraperitoneal) in B6D2F1 (BDF1) mice
Details: endpoint: mean survival time; dose: 100.0 mg/kg/injection; schedule: Q04DX003 (ip); vehicle: saline; higher = longer survival
Inconclusive results and toxic doses are left out.
measurement-kind: T/C

// worked examples, T/C included
compound	experimental-target	T/C
O=c1[nH]cnc2c1nnn2C1CC(O)C(CO)O1 (centres undefined)	L1210 leukemia ip in BDF1 mice, survival T/C	100 % of control
CC1OCC2OC(C)OC(C(COC(c3ccccc3)(c3ccccc3)c3ccccc3)OS(C)(=O)=O)C2O1 (centres undefined)	L1210 leukemia ip in BDF1 mice, survival T/C	102 % of control
CCOC(CCCN=CN(C)C)OCC	L1210 leukemia ip in BDF1 mice, survival T/C	102 % of control
COc1ccc(/C=C2\CCC3C(CCCC34OCCO4)C2=O)cc1 (centres undefined)	L1210 leukemia ip in BDF1 mice, survival T/C	101 % of control
Cc1ccncc1C1CCCN1C (centres undefined)	L1210 leukemia ip in BDF1 mice, survival T/C	94 % of control
CCOC(=O)CNCc1cccnc1	L1210 leukemia ip in BDF1 mice, survival T/C	95 % of control

Would you kindly look at the next entry?
Short answer on L1210 leukemia ip in BDF1 mice, survival T/C for `CN(C)/C=N/N1CCCCCC1` , T/C: 98 % of control

----------
Tested on: L1210 leukemia ip in BDF1 mice, survival T/C
Experiment: NCI In Vivo Anticancer Drug Screen. Data for tumor model L1210 Leukemia (intraperitoneal) in B6D2F1 (BDF1) mice
Conditions: endpoint: mean survival time; dose: 200.0 mg/kg/injection; schedule: Q01DX009 (ip); vehicle: saline with Tween-80; higher = longer survival
Toxic doses and inconclusive results are not listed.
measurement-kind: T/C

// worked examples, T/C included
compound	value
OC12CCCCC13CCC1CCCCC1(O2)O3 (stereo unspecified)	94 % of control
O=C1c2ccccc2C(=O)N1CNc1ccc(Cc2ccc(NCN3C(=O)c4ccccc4C3=O)c(Cl)c2)cc1Cl	92 % of control
COc1ccc(NC(=O)Oc2ccc3c(C)cc(=O)oc3c2)c(OC)c1	106 % of control
COc1cc(NC(=O)c2ccc(Cl)cc2Cl)c(OC)cc1Cl	96 % of control
Cc1cc(=O)[nH]c(Nc2nc3cc(Cl)c(Cl)cc3[nH]2)n1	90 % of control

Would you kindly look at the next entry?
Query O=C1OC(OC(=O)c2ccccc2)C(NC2CCCCC2)=C1Br (stereo unspecified) yields T/C of 96 % of control

----------
Test system: L1210 leukemia ip in BDF1 mice, survival T/C
Experiment: NCI In Vivo Anticancer Drug Screen. Data for tumor model L1210 Leukemia (intraperitoneal) in B6D2F1 (BDF1) mice
Conditions: endpoint: mean survival time; dose: 100.0 mg/kg/injection; schedule: Q01DX001 (ip); vehicle: carboxymethylcellulose (CMC); higher = longer survival
Toxic doses and inconclusive results are not listed.
measurement-kind: T/C

// worked examples, T/C included
molecule	measurement-kind	value
CC(=O)C(C(C)=O)C(C)=O.CC(=O)C(C(C)=O)C(C)=O.CC(=O)C(C(C)=O)C(C)=O.[Cr]	T/C	94 % of control
CC(=O)OC1CCCCCCCCC1OC(C)=O (configuration not stated)	T/C	103 % of control
COc1ccc(C(=O)CCCC(=O)O)cc1	T/C	100 % of control
SCc1ccc(Br)cc1	T/C	104 % of control
CC1([N+](=O)[O-])COP(=O)(NCc2ccccc2)OC1 (configuration not stated)	T/C	107 % of control
Cc1cccc(OCc2ccccc2)n1	T/C	105 % of control

Would you kindly look at the next entry?
Query `COc1ccc(-c2cc(-c3ccccc3)[nH]c(=O)c2N(C)C)cc1` yields T/C of 97 % of control

----------
Each entry below carries its reported T/C.
Tested on: L1210 leukemia ip in BDF1 mice, survival T/C
Assay: NCI In Vivo Anticancer Drug Screen. Data for tumor model L1210 Leukemia (intraperitoneal) in B6D2F1 (BDF1) mice
Details: endpoint: mean survival time; dose: 75.0 mg/kg/injection; schedule: Q01DX001 (ip); vehicle: saline; higher = longer survival
Toxic doses and inconclusive results are not listed.

// worked examples, T/C included
molecule	experimental-target	T/C
CCCCCCC1CCC(CCCCCCCC(=O)N2CCN(C)CC2)C(C/C=C/CCCCCCCC(=O)N2CCN(C)CC2)C1CCCCC (configuration not stated)	L1210 leukemia ip in BDF1 mice, survival T/C	94 % of control
CCCC[N+](C)(CCCC)CCCC	L1210 leukemia ip in BDF1 mice, survival T/C	101 % of control
C[N+](C)(C)CCC(=O)c1ccccc1	L1210 leukemia ip in BDF1 mice, survival T/C	102 % of control
c1ccc([P+]2(c3ccccc3)CC[P+](c3ccccc3)(c3ccccc3)CC2)cc1	L1210 leukemia ip in BDF1 mice, survival T/C	100 % of control
CN(C)CCCNCC(=O)Nc1ccc(S(=O)(=O)c2ccc([N+](=O)[O-])cc2)cc1	L1210 leukemia ip in BDF1 mice, survival T/C	104 % of control
CC1(C)OCC(C2OC(=O)C=C2OS(=O)(=O)O)O1 (configuration not stated)	L1210 leukemia ip in BDF1 mice, survival T/C	95 % of control
CC(=O)CC(=O)Nc1ccc(C(=O)c2ccccc2)cc1	L1210 leukemia ip in BDF1 mice, survival T/C	95 % of control
O=C1c2ccccc2-c2ccccc2C1(Cl)Cl	L1210 leukemia ip in BDF1 mice, survival T/C	105 % of control
C[n+]1ccc(/C=C\c2ccc3c(c2)OCO3)cc1	L1210 leukemia ip in BDF1 mice, survival T/C	100 % of control
CCc1ccccc1N=Nc1sc(N)nc1C	L1210 leukemia ip in BDF1 mice, survival T/C	94 % of control

Query `NC(N)=N/N=C/c1cc(Br)ccc1O` yields T/C of 102 % of control

Query `BrCCCc1ccccc1` yields T/C of 95 % of control
